Please provide measured inhibition for the entries that follow.
- EXPERIMENT: reduced ATP signal of yeast carrying P. falciparum Hsp90 – S. cerevisiae, BacTiter-Glo luminescence, single point, set 2, antimalarial PfHsp90 inhibitor project, primary screen (AID 504621);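 note: yeast relying on Plasmodium falciparum Hsp90 in place of its own; 0% = DMSO neutral controls and 100% = 20 µM radicicol positive controls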
- TEST_CONTEXT: S. cerevisiae expressing PfHsp90, growth, 48 h, at 9.4 µM, active compounds read high
Hit rate of the full screen: of about 310,000 compounds, about 970 (0.31%) were called active. Shown is part of a subset that was picked to be rich in actives.
Give bare numbers, in %.

CN(C)CC1Oc2ccccc2OC1(O)c1ccccc1 (stereo not drawn) : 102
CC(=O)C1(O)CCC2C3CCC4=C(Cl)C(=O)CCC4(C)C3CCC21C (stereo not drawn) : 7.87
CC1CC=CCC12C(=O)NC(=S)NC2=O (stereo not drawn) : 3.23

Return reported inhibition values for all items listed beneath this line.
1. CC(CC(C#N)(c1ccccc1)c1ccccc1)N1CCCCC1 (stereo not drawn)
2. CC(=O)OC1C2(CC3N4C(=O)C5(CO)SSC4(CC31O)C(=O)N5C)OC(C)C(C)(C)C2=O (stereo not drawn)
3. CCOC(=O)C1(c2ccccc2)CCN(CC(O)c2ccc(NC(C)=O)cc2)CC1 (stereo not drawn)
4. COC1C(O)C(C)OC(OC2CCC3(C=O)C(CCC4C3CCC3(C)C(C5=CC(=O)OC5)CCC43O)C2)C1O (stereo not drawn)
5. CC12CCC(O)CC1CCC1C2CCC2(C)C(C(=O)CC(O)C(F)(F)F)CCC12 (stereo not drawn)

Key:
1. 13.9
2. 11.7
3. -7.12
4. -24.6
5. -14.7

Hey, just so you know, these numbers are from PubChem BioAssay AID504621.
